# SYSTEM: Human Hsp90α N-terminal domain (Homo sapiens, UniProt P07900)
pKd: −log10 of the molar value.
TEST_READOUT: pKd

Data request: Quote pKd reported for CC(C)c1cc(C(=O)N2Cc3ccc(CN4CCN(C)CC4)cc3C2)c(O)cc1O [Example 55] please.
Data returned: > 7.00
